# target_or_test_system: T1, extracellular domain of human CD73 protein (CD73-ECD), C-terminus polyhistidine-tagged (UniProt P21589 27-547)
# T1 chain: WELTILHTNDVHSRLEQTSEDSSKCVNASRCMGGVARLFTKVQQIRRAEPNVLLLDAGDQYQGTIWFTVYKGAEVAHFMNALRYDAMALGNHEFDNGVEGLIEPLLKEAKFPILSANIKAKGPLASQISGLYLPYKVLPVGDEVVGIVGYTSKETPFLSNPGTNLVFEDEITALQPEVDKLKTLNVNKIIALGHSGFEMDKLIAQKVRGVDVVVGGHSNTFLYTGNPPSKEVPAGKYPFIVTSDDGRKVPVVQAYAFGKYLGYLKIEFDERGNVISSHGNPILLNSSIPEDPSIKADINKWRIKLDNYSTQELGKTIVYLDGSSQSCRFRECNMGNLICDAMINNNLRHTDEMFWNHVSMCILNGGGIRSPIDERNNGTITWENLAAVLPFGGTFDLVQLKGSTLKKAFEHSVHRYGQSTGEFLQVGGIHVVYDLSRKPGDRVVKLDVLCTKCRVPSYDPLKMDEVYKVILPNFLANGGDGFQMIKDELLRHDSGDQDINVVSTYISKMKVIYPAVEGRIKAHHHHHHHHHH
# method: enzyme inhibition; left table
In this section, each of the binders is paired with its reported IC50.
Quick reminder: number only, in nM, skip the unit.

Look up IC50: Hu001c-24 (antibody, V domains shown) VH: QVQLVQSGAEVKKPGASVKVSCKTSGYTFTNYYIYWVKQRPGQGLEWIGWIYPGNLNIKYNEKFKGRVTITADKSASTAYMELSSLRSEDTAVYYCARDDNYAWFAYWGQGTLVTVSS VL: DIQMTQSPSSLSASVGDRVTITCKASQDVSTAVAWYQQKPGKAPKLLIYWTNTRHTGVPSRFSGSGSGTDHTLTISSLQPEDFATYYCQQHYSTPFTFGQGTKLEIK
0.02

What about this binder? Hu001c-23 (antibody, V domains shown) VH: QVQLVQSGAEVKKPGASVKVSCKASGYTFTNYYIYWVKQRPGQGLEWIGWIYPGNLNIKYNEKFKGRVTITADKSASTAYMELSSLRSEDTAVYYCARDDNYAWFAYWGQGTLVTVSS VL: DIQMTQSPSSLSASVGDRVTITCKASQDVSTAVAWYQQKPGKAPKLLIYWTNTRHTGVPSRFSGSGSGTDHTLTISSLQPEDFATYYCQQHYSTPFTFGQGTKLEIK
0.03

Entry to check: mAb001c (antibody, V domains shown) VH: QVQLQQSGPELVKPGASVRISCKTSGYTFTNYYIYWVKQRPGQGLEWIGWIYPGNLNIKYNEKFKGKSTLTADKSSSTAFMQLSSLTSEDSAVYFCARDDNYAWFAYWGQGTLVTVSS VL: DIVMTQSHKFMSTSIGDRVSITCKASQDVSTAVAWYQQKPGQSPKLLIYWTNTRHTGVPDRFTGNTSGTEHTLTISSVQAEDLALYYCQQHYSTPFTFGSGTTLEIK
0.03

Source of measurements: patent US20210024646A1
